Would you kindly list concentration for each of these compounds?
organism: Rattus norvegicus; experiment: Final plasma concentration in the rat ferric chloride thrombosis model; settings: in vivo
Give bare numbers, in nM.

Take a look at these entries with their results.
>>> df
                                   molecule  endpoint_name  observed
0  Cc1nc(N)ccc1CNC(=O)Cn1c(C)cc(S(=O)(=O)NCC2CCC2)c(N)c1=O  concentration       640
1  Cc1nc(N)ccc1CNC(=O)Cn1c(C)cc(S(=O)(=O)c2ccccc2)c(N)c1=O  concentration       570
2  Cc1nc(N)ccc1CNC(=O)Cn1c(C)cc(S(=O)(=O)C2CCCCC2)c(N)c1=O  concentration       650
3  Cc1nc(N)ccc1CNC(=O)Cn1c(C)cc(S(=O)(=O)CC2CCC2)c(N)c1=O  concentration       680
4  Cc1nc(N)ccc1CNC(=O)Cn1c(C)cc(S(=O)(=O)c2cccs2)c(N)c1=O  concentration       430

Provide reported concentration for each item, in the same order as listed.
1. Cc1nc(N)ccc1CNC(=O)Cn1c(C)cc(S(=O)(=O)CC2CC2)c(N)c1=O
2. Cc1nc(N)ccc1CNC(=O)Cn1c(C)cc(S(=O)(=O)CC2CCCC2)c(N)c1=O

Result:
550
530

====

experiment: Pharmacokinetic property in dogs after oral administration at 1 mg/kg; type: ADME, organism-based, Canis lupus familiaris; parameters: dose 1 mg/kg, route oral; settings: dog, in vivo
ENDPOINT NAME: AUC (µM·h)
One number for each entry, in µM·h.

Problem: Could you share which AUC value was measured for `Cc1nc(N)ccc1CNC(=O)Cn1c(C)cc(S(=O)(=O)Cc2ccccc2)c(N)c1=O` ?
Result: 0.62

====

Would you kindly list half-life for each of these compounds?
assay: Half life period was determined; settings: dog
Numbers only, in h.

                                   molecule  endpoint_name  observed
0  Cc1nc(N)ccc1CNC(=O)Cn1c(C)cc(S(=O)(=O)CC2CCC2)c(N)c1=O      half-life     0.783
1  Cc1nc(N)ccc1CNC(=O)Cn1c(C)cc(S(=O)(=O)CC2CC2)c(N)c1=O      half-life       1.1

# evaluate next
Problem: Could you share which half-life value was measured for `Cc1nc(N)ccc1CNC(=O)Cn1c(C)cc2c(c1=O)NCN(CC1CC1)S2(=O)=O` ?
Result: 2.27

====

Would you kindly list Cmax for each of these compounds?
assay: Cmax value in dog; assay type: ADME, organism-based, Canis lupus familiaris; settings: in vivo
Answers are plain numbers, in nM.

In [3]: df
Out[3]:
                                   molecule  endpoint_name  observed
0  Cc1nc(N)ccc1CNC(=O)Cn1c(C)cc(S(=O)(=O)CC2CC2)c(N)c1=O           Cmax       370

Provide reported Cmax for each item, in the same order as listed.
1. Cc1nc(N)ccc1CNC(=O)Cn1c(C)cc(S(=O)(=O)CC2CCC2)c(N)c1=O
2. Cc1nc(N)ccc1CNC(=O)Cn1c(C)cc2c(c1=O)NCN(CC1CC1)S2(=O)=O

Result:
570
590

====

test: Protein binding activity of compound in human plasma; % Free; type: ADME, cell-free
Would you mind labelling by Free? At or over 30% is Yes, under is No.

In [3]: df
Out[3]:
                                   molecule  class_assignment
0  Cc1nc(N)ccc1CNC(=O)Cn1c(C)cc(S(=O)(=O)CC2CCCC2)c(N)c1=O                No
1  Cc1nc(N)ccc1CNC(=O)Cn1c(C)cc(S(=O)(=O)C2CCCCC2)c(N)c1=O               Yes
2  Cc1nc(N)ccc1CNC(=O)Cn1c(C)cc(S(=O)(=O)c2cccs2)c(N)c1=O               Yes
3  Cc1nc(N)ccc1CNC(=O)Cn1c(C)cc2c(c1=O)NCN(CC1CC1)S2(=O)=O                No
4  Cc1nc(N)ccc1CNC(=O)Cn1c(C)cc(S(=O)(=O)NCC2CCC2)c(N)c1=O                No

Problem: Dear colleague, could you confirm whether `Cc1nc(N)ccc1CNC(=O)Cn1c(C)cc(S(=O)(=O)NC2CCC2)c(N)c1=O` has Free at or above 30%?
Result: Yes

Problem: Dear colleague, could you confirm whether `Cc1nc(N)ccc1CNC(=O)Cn1c(C)cc(S(=O)(=O)NCC2CC2)c(N)c1=O` has Free at or above 30%?
Result: Yes

Data origin: ChEMBL document CHEMBL1136704
